Target: antibody tested in the epitope mapping of Example 5
Assay: HTRF competition, test protein against biotinylated human IL-4Rα/Fc for cryptate labelled antibody
Measure: % inhibition at the highest concentration (1000 nM) (%)
Report as a plain number; the unit % is understood.

Check out these entries, answers already filled in.
>>> quantitative_result("AllMoLoopsHuIL-4Rα (receptor) MKVLQEPTCVSDYIRTSTCEWKMNGPTNCSTELRLLYQLMFFEFSENLTCIPENNGGAGCVCHLEMNRPVQSDRYTLDLWAGQQLLWKGSFKPSEHVKPRAPGNLTVHTNVSDTLLLTWNNLYPSNNYLYNHLTYAVNIWSENDPADFRIYNVTYLEPSLRIAASTLKSGISYRARVRAWSQILTGTWSEWSPSTKWHNSYREPFDYKDDDDKAAHHHHHHHHHH")
41
>>> quantitative_result("MoIL-4Rα (receptor) IKVLGEPTCFSDYIRTSTCEWFLDSAVDCSSQLCLHYRLMFFEFSENLTCIPRNSASTVCVCHMEMNRPVQSDRYQMELWAEHRQLWQGSFSPSGNVKPLAPDNLTLHTNVSDEWLLTWNNLYPSNNLLYKDLISMVNISREDNPAEFIVYNVTYKEPRLSFPINILMSGVYYTARVRVRSQILTGTWSEWSPSITWYNHFQLPLNPAFLYKVVGAADYKDDDDKAAHHHHHHHHHH")
45
>>> quantitative_result("MoD1HuD2IL-4Rα (receptor) IKVLGEPTCFSDYIRTSTCEWFLDSAVDCSSQLCLHYRLMFFEFSENLTCIPRNSASTVCVCHMEMNRPVQSDRYQMELWAEHRQLWQGSFSPSGHVKPRAPGNLTVHTNVSDTLLLTWSNPYPPDNYLYNHLTYAVNIWSENDPADFRIYNVTYLEPSLRIAASTLKSGISYRARVRAWAQCYNTTWSEWSPSTKWHNSYREPFDYKDDDDKAAHHHHHHHHHH")
34

Moving on to the next binder.
The recorded % inhibition at the highest concentration (1000 nM) for entry MoLoop3HuIL-4Rα (receptor) MKVLQEPTCVSDYMSISTCEWKMNGPTNCSTELRLLYQLVFLLSEAHTCIPENNGGAGCVCHLEMNRPVQSDRYTLDLWAGQQLLWKGSFKPSEHVKPRAPGNLTVHTNVSDTLLLTWSNPYPPDNYLYNHLTYAVNIWSENDPADFRIYNVTYLEPSLRIAASTLKSGISYRARVRAWAQCYNTTWSEWSPSTKWHNSYREPFDYKDDDDKAAHHHHHHHHHH equals 58

Entry source: patent US20180057596A1
